Test system: L1210 leukemia
Assay: Antitumor activity vs transplantable L1210 leukemia (ip) in mice
Type: in vivo, mouse
Conditions: L1210, QD 1 → 5, ip
ASSAY_ENDPOINT: O.D. (optimal dose) (mg/kg/inj)
Your answer should be a plain number; it is taken to be in mg/kg/inj.

Give the value of O.D. (optimal dose) reported for the following: N[C@@H]1CCCC[C@H]1N.O=C([O-])C(F)(F)C(F)(F)C(F)(F)F.O=C([O-])C(F)(F)C(F)(F)C(F)(F)F.[Pt+2] (relative stereo)
3

Give the value of O.D. (optimal dose) reported for the following: CCC(=O)C(=O)[O-].CCC(=O)C(=O)[O-].N[C@@H]1CCCC[C@H]1N.[Pt+2] (relative stereo)
2.5

Give the value of O.D. (optimal dose) reported for the following: CCCCB([O-])[O-].N[C@@H]1CCCC[C@H]1N.[Pt+2] (relative stereo)
1

---

Tested on: L1210 leukemia
Test: Antitumor activity vs transplantable L1210 leukemia (ip) in mice
Assay type: in vivo, mouse
Settings: L1210, QD 1 → 5, ip
Checkbox rule: O.D. (optimal dose) lower than 8 mg/kg/inj = satisfied; O.D. (optimal dose) not lower than 8 mg/kg/inj = not satisfied.

Please let me know if N[C@@H]1CCCC[C@H]1N.O=C([O-])CC(=O)C(=O)[O-].[Pt+2] (relative stereo) [Example 2] shows O.D. (optimal dose) below 8 mg/kg/inj.
satisfied

Please let me know if N[C@@H]1CCCC[C@H]1N.[O-]B([O-])O.[Pt+2] [Example 1] shows O.D. (optimal dose) below 8 mg/kg/inj.
satisfied

Please let me know if N[C@@H]1CCCC[C@H]1N.O=C([O-])CCC(=O)C(=O)[O-].[Pt+2] (relative stereo) [Example 14] shows O.D. (optimal dose) below 8 mg/kg/inj.
not satisfied

Please let me know if CC(C)CC(C)(N)CN.[O-]B([O-])O.[Pt+2] (centres unmarked) [Example 10] shows O.D. (optimal dose) below 8 mg/kg/inj.
not satisfied

Please let me know if NCC1(N)CCCCCCC1.[O-]B([O-])O.[Pt+2] [Example 13] shows O.D. (optimal dose) below 8 mg/kg/inj.
satisfied

---

System: BDF1 mice
Assay: Single-dose ip LD50 in BDF1 mice
Type: in vivo, mouse
Settings: 30 days observation
ASSAY_ENDPOINT: LD50 (mg/kg/ip)
Your answer should be a plain number; it is taken to be in mg/kg/ip.

Give the value of LD50 reported for the following: CCCCB([O-])[O-].N[C@@H]1CCCC[C@H]1N.[Pt+2] (relative stereo)
11.3

Give the value of LD50 reported for the following: CCC(=O)C(=O)[O-].CCC(=O)C(=O)[O-].N[C@@H]1CCCC[C@H]1N.[Pt+2] (relative stereo)
30

Give the value of LD50 reported for the following: NCC1(N)CCCCCCC1.O=C([O-])CP(=O)([O-])[O-].[H+].[Pt+2]
137

Give the value of LD50 reported for the following: N[C@@H]1CCCC[C@H]1N.[O]=[Mn](=[O])([O-])[O-].[Pt+2]
31

Give the value of LD50 reported for the following: CC(C)CC(C)(N)CN.[O-]B([O-])O.[Pt+2] (centres unmarked)
30

---

System: BDF1 mice
Experiment: Nephrotoxicity: effect on blood urea nitrogen (BUN) in BDF1 mice
Conditions: effect relative to cisplatin
ASSAY_ENDPOINT: BUN↑, Mouse

In [3]: df
Out[3]:
                                   molecule  assay_endpoint  measurement
0  CC(=O)CC(=O)[O-].CC(=O)CC(=O)[O-].N[C@@H]1CCCC[C@H]1N.[Pt+2] (relative stereo)     BUN↑, Mouse            0
1   N[C@@H]1CCCC[C@H]1N.[O-]B([O-])O.[Pt+2]     BUN↑, Mouse            0
2  N[C@@H]1CCCC[C@H]1N.O=C([O-])CC(=O)C(=O)[O-].[Pt+2] (relative stereo)     BUN↑, Mouse            0
3  NCC1(N)CCCCCCC1.O=C([O-])CP(=O)([O-])[O-].[H+].[Pt+2]     BUN↑, Mouse            <

---

System: BDF1 mice
Assay: Nephrotoxicity: effect on blood urea nitrogen (BUN) in BDF1 mice
Conditions: 30 mg/kg ip
ASSAY_ENDPOINT: Incidence of BUN > 30 mg %

Give the value of Incidence of BUN > 30 mg % reported for the following: CCC(=O)C(=O)[O-].CCC(=O)C(=O)[O-].N[C@@H]1CCCC[C@H]1N.[Pt+2] (relative stereo) [Example 5]
1/9

Give the value of Incidence of BUN > 30 mg % reported for the following: N[C@@H]1CCCC[C@H]1N.O=C([O-])CC(=O)C(=O)[O-].[Pt+2] (relative stereo) [Example 2]
0/5

Give the value of Incidence of BUN > 30 mg % reported for the following: CC(=O)CC(=O)[O-].CC(=O)CC(=O)[O-].N[C@@H]1CCCC[C@H]1N.[Pt+2] (relative stereo) [Example 4]
0/5

Give the value of Incidence of BUN > 30 mg % reported for the following: CC(C)CC(C)(N)CN.[O-]B([O-])O.[Pt+2] (stereo not shown) [Example 10]
7/10

---

System: L1210 leukemia
Experiment: Antitumor activity vs transplantable L1210 leukemia (ip) in mice
Format: in vivo, mouse
Conditions: L1210, QD 1 → 5, ip; dying mice only
Text: The antitumor activities of the complexes provided by the present invention have been determined against L-1210 leukemia in the mouse and, for certain of the complexes, against other mouse tumor systems. Results of antitumor testing against the transplantable mouse tumors L1210 leukemia, cisplatin-resistant L1210 leukemia, B16 melanoma, Madison 109 lung carcinoma and colon 26 carcinoma are shown below in Tables 1 and 2. […]
Give Max % T/C for every item shown.
Your answer should be a plain number; it is taken to be in %.

Give the value of Max % T/C reported for the following: N[C@@H]1CCCC[C@H]1N.O=C([O-])CCC(=O)C(=O)[O-].[Pt+2] (relative stereo) [Example 14]
250

Give the value of Max % T/C reported for the following: CCC(=O)C(=O)[O-].CCC(=O)C(=O)[O-].N[C@@H]1CCCC[C@H]1N.[Pt+2] (relative stereo) [Example 5]
193

Give the value of Max % T/C reported for the following: CC(=O)CC(=O)[O-].CC(=O)CC(=O)[O-].N[C@@H]1CCCC[C@H]1N.[Pt+2] (relative stereo) [Example 4]
214

Give the value of Max % T/C reported for the following: N[C@@H]1CCCC[C@H]1N.[O-]B([O-])O.[Pt+2] [Example 1]
243

Give the value of Max % T/C reported for the following: NCC1(N)CCCCCCC1.O=C([O-])CP(=O)([O-])[O-].[H+].[Pt+2] [Example 15]
193

Give the value of Max % T/C reported for the following: Cc1cn(C2CC(O)C(COP(=O)([O-])[O-])O2)c(=O)[nH]c1=O.NC1CCCCC1N.[Pt+2] (stereo not shown) [Example 6]
221

Give the value of Max % T/C reported for the following: CC(C)CC(C)(N)CN.[O-]B([O-])O.[Pt+2] (stereo not shown) [Example 10]
236

---

Give Deaths D.14 for every item shown.
System: BDF1 mice
Assay: Deaths (D.14) in the BUN test in BDF1 mice
Assay type: in vivo, mouse
Conditions: 30 mg/kg ip

Fill in Deaths D.14 for CC(=O)CC(=O)[O-].CC(=O)CC(=O)[O-].N[C@@H]1CCCC[C@H]1N.[Pt+2] (relative stereo) [Example 4] tested with BDF1 mice.
0/5

Fill in Deaths D.14 for CCC(=O)C(=O)[O-].CCC(=O)C(=O)[O-].N[C@@H]1CCCC[C@H]1N.[Pt+2] (relative stereo) [Example 5] tested with BDF1 mice.
3/10

Fill in Deaths D.14 for CC(C)CC(C)(N)CN.[O-]B([O-])O.[Pt+2] (stereo not shown) [Example 10] tested with BDF1 mice.
1/10

Fill in Deaths D.14 for N[C@@H]1CCCC[C@H]1N.O=C([O-])CC(=O)C(=O)[O-].[Pt+2] (relative stereo) [Example 2] tested with BDF1 mice.
0/5

---

Test system: L1210/CDDP (cisplatin resistant line of L1210 leukemia)
Assay: Antitumor activity vs cisplatin-resistant L1210 leukemia (L1210/CDDP) in mice
Format: in vivo, mouse
Settings: Day 1, dying mice only
ASSAY_ENDPOINT: Max % T/C (%)
Your answer should be a plain number; it is taken to be in %.

Give the value of Max % T/C reported for the following: N[C@@H]1CCCC[C@H]1N.O=C([O-])CCC(=O)C(=O)[O-].[Pt+2] (relative stereo)
169

Give the value of Max % T/C reported for the following: NCC1(N)CCCCCCC1.[O-]B([O-])O.[Pt+2]
256

Give the value of Max % T/C reported for the following: CC(=O)CC(=O)[O-].CC(=O)CC(=O)[O-].N[C@@H]1CCCC[C@H]1N.[Pt+2] (relative stereo)
163
